molecular target: T1, Recombinant SARS-CoV-2 N protein His tagged (SARS-CoV-2, UniProt P0DTC9 1-419); experiment: BLI (Octet Red 96E), mAb on anti-mouse Fc biosensor, N protein in solution, global 1:1 fit
T1 construct: also called nucleocapsid (N) protein; recombinant HIS tagged SARS-CoV-2 N protein

{"BINDER": "SCT-Pa10 (antibody, mouse IgG1, kappa, V domains shown) VH: QVQLQQSGPELVKPGASVKISCKASGYAFSTSWMNWMKQRPGKGLEWIGRIYPGDGETNYNGKFKGKATLTADKSSSTAYMQLSSLTSDDSAVYFCARGANGDYLFYLDYWGQGTTLTVSS VL: DIQMTQTTSSLSASLGDRVTISCSASQDISDFLNWYQQKPDGTVKLLIYYTSSLHSGVPSRFSGSGSGTDYSLTINNLEPEDIATYYCQQYSKLPYTFGGGTKLEIRR", "koff / s⁻¹": 0.000247}
{"BINDER": "SCT-Pa16 (antibody, mouse IgG1, kappa, V domains shown) VH: QVQLQQPGTELVKPGASVKLSCKASGYTFTSYWMHWVKQRPGQGLEWIGSVNPSNGGANYNEKFKNKATLTVDKSSSTAYMQLSSLTSEDSAVYYCARRNGFPYYFDYWGQGTTLTVSS VL: DIVMTQSQKFVSTSVGDRVSVTCKASQNVGTNVVWYQQKPGQSPKPLIYSASYRYSGVPDRFTGSGSGTDFTLTISNVQSEDLADYFCHQYNSSPLTFGVGTKLELKR", "koff / s⁻¹": 0.00154}
{"BINDER": "SCT-Pa04 (antibody, mouse IgG1, kappa, V domains shown) VH: EVQLQQSGPELVKPGASVKMSCKASGYSFTSYVMHWVKQKPGQGLEWIGYINPYNDGTKYNEKFKGKATLTSDKSSSTAFMDLSSLTSDDSAVYYCSRDDYSNPPFAYWGQGTLVTVSA VL: SIVMTQTPKFLLVSAGDRITITCKASQSVSNNVAWYQQKPGQSPTLLISYASNRFTGVPDRFTGSGYGTDFTFTISIVQAEDLAVYFCQQDYDSPYTFGGGTKLEIKR", "koff / s⁻¹": "1.64e-05"}
